Hi there, I'd appreciate the recorded growth for every entry that follows.
Tested on: SF-539 CNS
Experiment: NCI-60 one-dose screen, 48 h (100 = growth as untreated, 0 = no growth, -100 = all killed)
Settings: 10 µM unless noted
This is part of a sample that, as a whole, favours compounds with a hit. Of some 83,000 tested, about 20% had one in any assay.
Answers are plain numbers, in %.

Please review the following examples before continuing.
1) CCCCCCCCN1C(=O)/C(=c2\sc3n(c2=O)C2C(NN=3)N(CC)C(=O)N2CC)c2ccccc21 (stereo not drawn) : 59.9
2) O=C(N/N=C/c1ccc(F)cc1)c1ccccc1Nc1cccc(C(F)(F)F)c1 : 109
3) Clc1ccc(C2CC(c3cccc(Nc4ccncc4)c3)=NN2c2ccccc2)cc1 (stereo not drawn) : 71.5
4) COc1cc(-c2nc3occn3c2-c2ccnc(NCCNS(=O)(=O)c3ccc(Cl)cc3)n2)ccc1F : 85.4
5) Cc1ccc(O)c(C(=O)O)c1 : 116

Parameters: items (list). Returns: growth for each item.
1. Clc1ccc(C2CC(c3cccc(Nc4ccncc4)c3)=NN2c2ccc(Cl)cc2)cc1 (stereo not drawn)
2. CC[C@H](C)[C@@H]1NC(=O)[C@H](Cc2ccc(O)cc2)N(C)C(=O)[C@H](Cc2ccccc2)NC(=O)CN(C)C(=O)[C@@H]2CCCN2C(=O)[C@@H](Cc2ccccc2)N(C)C(=O)[C@H](CC(C)C)NC1=O
3. COc1ccc(/C=N/C2=C(C#N)C(c3ccccc3[N+](=O)[O-])c3ccc4ccccc4c3O2)cc1 (stereo not drawn)

Given back:
71.2
-24.8
97.3

---

Test system: CCRF-CEM leukemia
Assay: NCI-60 one-dose screen, 48 h
Details: 10 µM unless noted
The panel holds about 83,000 compounds, 20% with a hit somewhere; the sample as a whole holds those more often. Activity calls are given as the source filed them. Rule for the calls: active = growth percent below 10; inactive = the rest.
# valid calls are active, inactive; nothing else

1. CCCCCCOc1ccc(/C=N/Nc2cc(C)nc3ccc(Br)cc23)cc1 : active
2. CC(C)(C#N)N1CCN(c2ccccc2Cl)CC1 : inactive
3. C=C(C)[C@@H]1CC[C@]2(C(=O)O)CC[C@]3(C)[C@H](CC[C@@H]4[C@@]5(C)C[C@@H](CC#Cc6ccc(Br)cc6)C(=O)C(C)(C)[C@@H]5CC[C@]43C)[C@@H]12 : inactive

Asked: # fetch the recorded call for c1ccc(Cn2nc3c(c2-c2ccccc2)-c2oncc2CC3)cc1 here
Given back: inactive

Asked: # fetch the recorded call for CCOC(=O)N1CCc2c(sc3nc4nc[nH]n4c(=O)c23)C1 here
Given back: inactive

Asked: # fetch the recorded call for CCCN=C(N)c1ccc(NC(=O)c2ccc(C(=O)Nc3ccc(C(N)=NCCC)cc3)cc2)cc1 here
Given back: inactive

Asked: # fetch the recorded call for COc1ccc(-c2nc(N/N=C/c3c[nH]c4ccccc34)nc(N3CCOCC3)c2C#N)cc1 here
Given back: inactive

Asked: # fetch the recorded call for COc1ccc(-c2nc(SC(C)C)nc(NNC(N)=O)c2C#N)cc1 here
Given back: inactive

---

Test system: COLO 205 colon
Test: NCI-60 one-dose screen, 48 h
Conditions: 10 µM unless noted
About 83,000 compounds went through this panel and 20% of them were active in at least one assay; those are over-represented in the sample as a whole. Activity calls are given as the source filed them. The calls were made as follows: active = growth percent below 10; inactive = the rest.
# valid calls are active, inactive; nothing else

Worked cases, answers included:
1. O=S(=O)(NCCNc1nccc(-c2c(-c3cccc(F)c3)nc3occn23)n1)c1cccc2ccccc12 : inactive
2. COc1ccc(C(O)c2cc3c(N)c(C(=O)Nc4cccc(OC)c4)sc3nc2C)cc1 (stereo not drawn) : active
3. O=C(N/N=C/c1ccc(O)c(O)c1)c1sc2ccccc2c1Cl : inactive
4. COc1ccc(C2=NN(C(C)=O)C(c3cn(Cc4ccc(Cl)cc4)c4ccccc34)C2)cc1 (stereo not drawn) : inactive
5. FCc1nc2nc(Cl)c(Cl)nc2[nH]1 : inactive

Asked: # fetch the recorded call for COc1ccc(-c2nc(N/N=C/c3ccco3)nc(N3CCOCC3)c2C#N)cc1 here
Given back: inactive

Asked: # fetch the recorded call for COc1ccc(-c2cnc(N)nc2-c2ccc(OC)cc2O)cc1 here
Given back: inactive

Asked: # fetch the recorded call for CCC(C)C(N)C(=O)NNc1n[nH]c(=S)n1N (stereo not drawn) here
Given back: inactive

---

System: T-47D breast
Assay: NCI-60 one-dose screen, 48 h (100 = growth as untreated, 0 = no growth, -100 = all killed)
Conditions: 10 µM unless noted
Experimental: Growth inhibition of the T-47D human tumor cell line is measured as a screen for anti-cancer activity. Cells are grown in 96 well plates and exposed to the test compound for 48 hours. Compounds are tested at a single concentration, which is 10^-5 M for most compounds. The reported endpoint is percent growth (GI% or GIPRCNT), where numbers from 0 - 100% represent growth inhibition, and numbers from -100% - 0 represent cell death. For example, a value of 40 represents 60% growth inhibition. […]
Compounds without any hit were thinned out: in the full panel of roughly 83,000, 20% have a hit.
Observation type: growth (%)
Numbers only, in %.

Please review the following examples before continuing.
1) O=c1[nH]nc(-c2ccc(Br)cc2)cc1Cc1ccc(O)cc1 : 83.2
2) Cc1cccc(Oc2ccc(Nc3ncnc4ccc(NC(=O)CN(C)C)cc34)cc2Cl)c1 : 39.4
3) CCOC(=O)c1ccc(Nc2ccnc(SCC(=O)c3ccc(C#N)cc3)n2)cc1 : 9.84
4) c1ccc(-c2nn(-c3ccccc3)[n+](-c3cccc4ccccc34)n2)cc1 : 25

Now, please, on to the next molecule.
Asked: State its growth: O=S(=O)(NCCCNc1nccc(-c2c(-c3ccc(F)c(O)c3)nc3sccn23)n1)c1ccc(F)cc1
Given back: -1.88

---

Tested on: OVCAR-8 ovarian
Experiment: NCI-60 one-dose screen, 48 h
Conditions: 10 µM unless noted
This is part of a sample that, as a whole, favours compounds with a hit. Of some 83,000 tested, about 20% had one in any assay. Calls of active or inactive are those of the source. Rule for the calls: active = growth percent below 10; inactive = the rest.
# valid calls are active, inactive; nothing else

Worked cases, answers included:
1. C(=C\c1n(Cc2ccc3ccccc3c2)c(-c2ccccc2)c(-c2ccccc2)[n+]1Cc1ccc2ccccc2c1)/c1ccccc1 : active
2. CO[C@@H]1[C@H](N(C)C(=O)c2ccccc2)C[C@@H]2O[C@]1(C)n1c3ccccc3c3c4c(c5c6ccccc6n2c5c31)C(=O)NC4=O : inactive
3. COc1ccc(-n2cc(-c3cc(OC)c(OC)c(OC)c3)n(C(C)=O)c2=O)cc1 : inactive
4. CCN(CC)CCCC(Nc1c2ccc(Cl)cc2nc2ccc(OC)cc12)c1ccc(Cl)cc1 (configuration not stated) : active

Asked: # fetch the recorded call for O=C(N=Nc1c(O)[nH]c2ccc(F)cc12)c1cc2ccccc2[nH]1 here
Given back: inactive

Asked: # fetch the recorded call for CCCN=C(N)c1ccc(NC(=O)c2ccc(C(=O)Nc3ccc(C(N)=NCCC)cc3)cc2)cc1 here
Given back: inactive

Asked: # fetch the recorded call for O=C1c2ccccc2-c2c1c1c(NCCCO)nc3ccccc3c1n2Cc1ccccc1 here
Given back: inactive

---

System: MDA-MB-231 breast
Test: NCI-60 one-dose screen, 48 h
Settings: 10 µM unless noted
Compounds without any hit were thinned out: in the full panel of roughly 83,000, 20% have a hit. Calls of active or inactive are those of the source. How the source made its calls: active means growth percent below 10; inactive means the rest.
# valid calls are TRUE = active, FALSE = inactive; nothing else

1) COc1ccc(C(=O)c2cc3c(N)c(C(=O)Nc4cccc(Cl)c4)sc3nc2C)cc1 : FALSE
2) COc1nc(N)nc(-n2c(-c3ccc(C)cc3)nc3ccccc32)c1NCc1ccc(C)cc1 : FALSE
3) Fc1ccc(C2CC(c3cccc(Nc4ccncc4)c3)=NN2c2cc(Cl)cc(Cl)c2)cc1 (centres undefined) : FALSE
4) COc1c(Cl)cc(Cl)c2ccc(C=C3C(=O)N(C)C(=O)N(C)C3=O)nc12 : FALSE
5) O=S(=O)(NCCCNc1nccc(-c2c(-c3cccc(O)c3)nc3occn23)n1)c1ccc(Br)cc1 : FALSE
6) O=c1[nH]nc(-c2ccc(Cl)cc2)cc1Cc1cccc([N+](=O)[O-])c1 : FALSE
7) CCCCOc1ccc(/C=N/Nc2cc(C)nc3ccc(Cl)cc23)cc1 : TRUE
8) COc1ccccc1/C=C1\Oc2cc(OCCCN3CCCC3)ccc2C1=O : FALSE

Asked: # fetch the recorded call for FC(F)(F)c1cccc(Oc2ccc(Nc3ncnc4ccc(OCCCN5CCOCC5)cc34)cc2Cl)c1 here
Given back: FALSE

Asked: # fetch the recorded call for CC(C)CN(C(=O)c1ccc(Cl)cc1)c1c(N)n(CC(C)C)c(=O)[nH]c1=O here
Given back: FALSE

Asked: # fetch the recorded call for C=C(C)[C@H]1CC/C(C)=C/CC[C@]2(C)O[C@H]2CC/C(COC(=O)[C@@H](OC(C)=O)[C@H](NC(=O)c2ccccc2)c2ccccc2)=C\[C@@H]1O here
Given back: FALSE

Asked: # fetch the recorded call for S=c1[nH]cccc1-c1nnc2n1Nc1nc3ccc(Cl)cc3cc1CS2 here
Given back: FALSE

Asked: # fetch the recorded call for CC(=O)c1cccc(NS(=O)(=O)c2cccc(C(=O)Nc3ccc(Br)cc3)c2)c1 here
Given back: FALSE

Asked: # fetch the recorded call for Cn1c(=O)c2[nH]c(CCCc3nc4c([nH]3)c(=O)n(C)c(=O)n4C)nc2n(C)c1=O here
Given back: FALSE

Reference source for all entries: PubChem BioAssay (NCI)
